*1 amine or outer side, *2 acyl side, *3 side chain or, on linkers, in order; H or OH if unused. Where a SMILES comes first, the peptide text is derived from it. Bridges are numbered along the chain shown (N, C = ends). [ ]: non-standard residue; d: D form. NGly(3-aminopropyl) = O=C(CN(CCCN[*:3])[*:1])[*:2]; N(2-Aminoethyl)Gly = O=C(CN(CCN[*:3])[*:1])[*:2]; Heptanedioyl = O=C(CCCCCC(=O)[*:2])[*:1]; Adipoyl = O=C(CCCCC(=O)[*:2])[*:1]; Glutaryl = O=C(CCCC(=O)[*:2])[*:1]; Suc = O=C(CCC(=O)[*:2])[*:1]; Nlys = NCCCCNCC(=O)O
Below are compounds with their IC50 as measured on MC4R (Homo sapiens, UniProt P32245).
Sequence (P32245 whole entry, species assumed): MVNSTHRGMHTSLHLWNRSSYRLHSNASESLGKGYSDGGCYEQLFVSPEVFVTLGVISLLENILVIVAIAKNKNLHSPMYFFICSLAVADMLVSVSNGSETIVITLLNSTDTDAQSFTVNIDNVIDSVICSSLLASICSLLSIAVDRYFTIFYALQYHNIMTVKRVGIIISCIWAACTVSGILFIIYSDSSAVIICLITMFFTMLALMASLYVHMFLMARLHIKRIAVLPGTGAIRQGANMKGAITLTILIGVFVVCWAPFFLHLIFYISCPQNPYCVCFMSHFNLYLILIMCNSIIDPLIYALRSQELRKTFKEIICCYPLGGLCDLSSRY
OBSERVATION TYPE: IC50 (nM)

N=C(N)NCCC[C@@H]1NC(=O)[C@@H](Cc2ccccc2)NC(=O)[C@H](Cc2ccccc2)NC(=O)CCCCCC(=O)NCCCN(CC(N)=O)C(=O)[C@H](Cc2c[nH]c3ccccc23)NC1=O [BBC7] (F[dF]RW[NGly(3-aminopropyl)]-NH2; linker N-5 via Heptanedioyl)	100
N=C(N)NCCC[C@@H]1NC(=O)[C@@H](Cc2ccccc2)NC(=O)[C@H](Cc2ccccc2)NC(=O)CCC(=O)NCCN(CC(N)=O)C(=O)[C@H](Cc2c[nH]c3ccccc23)NC1=O [BBC1] (F[dF]RW[N(2-Aminoethyl)Gly]-NH2; linker N-5 via Suc)	90
N=C(N)NCCC[C@@H]1NC(=O)[C@@H](Cc2ccccc2)NC(=O)[C@H](Cc2ccccc2)NC(=O)CCCC(=O)NCCCCN(CC(N)=O)C(=O)[C@H](Cc2c[nH]c3ccccc23)NC1=O [BBC12] (F[dF]RW[Nlys]-NH2; linker N-5 via Glutaryl)	100
N=C(N)NCCC[C@@H]1NC(=O)[C@@H](Cc2ccccc2)NC(=O)[C@H](Cc2ccccc2)NC(=O)CCCCC(=O)NCCN(CC(N)=O)C(=O)[C@H](Cc2c[nH]c3ccccc23)NC1=O [BBC10] (F[dF]RW[N(2-Aminoethyl)Gly]-NH2; linker N-5 via Adipoyl)	120
N=C(N)NCCC[C@@H]1NC(=O)[C@@H](Cc2ccccc2)NC(=O)[C@H](Cc2ccccc2)NC(=O)CCCCCC(=O)NCCN(CC(N)=O)C(=O)[C@H](Cc2c[nH]c3ccccc23)NC1=O [BBC9] (F[dF]RW[N(2-Aminoethyl)Gly]-NH2; linker N-5 via Heptanedioyl)	100

(a) N=C(N)NCCC[C@@H]1NC(=O)[C@@H](Cc2ccccc2)NC(=O)[C@H](Cc2ccccc2)NC(=O)CCC(=O)NCCCN(CC(N)=O)C(=O)[C@H](Cc2c[nH]c3ccccc23)NC1=O [BBC8] (F[dF]RW[NGly(3-aminopropyl)]-NH2; linker N-5 via Suc)
(b) N=C(N)NCCC[C@@H]1NC(=O)[C@@H](Cc2ccccc2)NC(=O)[C@H](Cc2ccccc2)NC(=O)CCCCC(=O)NCCCCN(CC(N)=O)C(=O)[C@H](Cc2c[nH]c3ccccc23)NC1=O [BBC13] (F[dF]RW[Nlys]-NH2; linker N-5 via Adipoyl)
// which entry reports the smaller IC50, a or b ? Kindly give the label for the entry you pick.
a
(a: 60 nM, b: 100 nM)

(A) N=C(N)NCCC[C@@H]1NC(=O)[C@@H](Cc2ccccc2)NC(=O)[C@H](Cc2ccccc2)NC(=O)CCCCC(=O)NCCCN(CC(N)=O)C(=O)[C@H](Cc2c[nH]c3ccccc23)NC1=O [BBC15] (F[dF]RW[NGly(3-aminopropyl)]-NH2; linker N-5 via Adipoyl)
(B) N=C(N)NCCC[C@@H]1NC(=O)[C@@H](Cc2ccccc2)NC(=O)[C@H](Cc2ccccc2)NC(=O)CCCC(=O)NCCCN(CC(N)=O)C(=O)[C@H](Cc2c[nH]c3ccccc23)NC1=O [BBC6] (F[dF]RW[NGly(3-aminopropyl)]-NH2; linker N-5 via Glutaryl)
From the items above, decide which of A and B has the lower IC50 reading. In your reply, give the label of the chosen option.
A
(A: 60 nM, B: 110 nM)

Cited source: patent US20080242600A1
